Measured growth of individual entries
Test system: IGROV1 ovarian
TEST_PROTOCOL: NCI-60 one-dose screen, 48 h (100 = growth as untreated, 0 = no growth, -100 = all killed)
RECORDED_CONDITIONS: 10 µM unless noted
Experimental: Growth inhibition of the IGROV1 human tumor cell line is measured as a screen for anti-cancer activity. Cells are grown in 96 well plates and exposed to the test compound for 48 hours. Compounds are tested at a single concentration, which is 10^-5 M for most compounds. The reported endpoint is percent growth (GI% or GIPRCNT), where numbers from 0 - 100% represent growth inhibition, and numbers from -100% - 0 represent cell death. For example, a value of 40 represents 60% growth inhibition. […]
Compounds without any hit were thinned out: in the full panel of roughly 83,000, 20% have a hit.
Field format: number, assumed %, no unit text.

MOLECULE | DISPLAY_UNIT | growth
Cc1cc2c(C#N)n3c(c2cc1C)C(=O)C(c1ccccc1)Oc1ccccc1-3 (centres undefined) | % | 48.8
COc1ccc(-c2nnc(COc3ccc(NC(=O)Nc4cc(C(F)(F)F)cc(C(F)(F)F)c4)cc3F)o2)cc1 | % | 44.4
CCOc1cc(C(C)(C)C)ccc1C1=N[C@H](c2ccc(Cl)cc2)[C@H](c2ccc(Cl)cc2)N1C(=O)N1CCN(CC#Cc2cccc3c2CN([C@@H]2CCC(=O)NC2=O)C3=O)CC1 | % | 8.46

Prompt line: Name the reported growth value associated with the molecule `C[n+]1c2ccccc2c(Nc2ccc(N3CCCCC3)cc2)c2[nH]c3ccccc3c21`
Response line: -97

* * *

Measured growth of individual entries
System: LOX IMVI melanoma
TEST_PROTOCOL: NCI-60 one-dose screen, 48 h (100 = growth as untreated, 0 = no growth, -100 = all killed)
RECORDED_CONDITIONS: 10 µM unless noted
About 83,000 compounds went through this panel and 20% of them were active in at least one assay; those are over-represented in the sample as a whole.
Field format: number, assumed %, no unit text.

Prompt line: Name the reported growth value associated with the molecule `ClC1=C(Cl)C(=C2C(Cl)=C(Cl)C(Cl)=C2Cl)C(Cl)=C1Cl`
Response line: 97.9

Prompt line: Name the reported growth value associated with the molecule CC12CCCCC1C(C(N)=O)C(=O)O2 (centres undefined)
Response line: 96.4

Prompt line: Name the reported growth value associated with the molecule O=C(C(Br)Br)C(Br)C(Br)c1ccccc1 (centres undefined)
Response line: 53.3

* * *

Test system: MOLT-4 leukemia
TEST_PROTOCOL: NCI-60 one-dose screen, 48 h (100 = growth as untreated, 0 = no growth, -100 = all killed)
RECORDED_CONDITIONS: 10 µM unless noted
This is part of a sample that, as a whole, favours compounds with a hit. Of some 83,000 tested, about 20% had one in any assay. Calls of active or inactive are those of the source. How the source made its calls: active means growth percent below 10; inactive means the rest.
Measured growth of individual entries

COMPOUND | MEASUREMENT_TARGET | ENDPOINT_RESULT
COc1ccc2nc(NC(=O)c3cc(-c4ccc(F)cc4)n4nc(-c5ccccc5)cc4n3)sc2c1 | MOLT-4 leukemia | 96.1% (inactive)

Prompt line: Look up growth with MOLT-4 leukemia for this compound: `Nc1ccccc1-c1ccc([N+](=O)[O-])cc1`
Response line: 30.5% (inactive)

Prompt line: Look up growth with MOLT-4 leukemia for this compound: `Cc1nc(N)[nH]c(=O)c1C`
Response line: 150% (inactive)

Prompt line: Look up growth with MOLT-4 leukemia for this compound: `O=C(C=C=Nc1ccccc1)C(=O)N=C=Cc1ccccc1`
Response line: -16.3% (active)

Data origin: PubChem BioAssay (NCI)
